# Test system: Staphylococcus aureus
# Experiment Description: Antibacterial activity against multidrug-resistant Staphylococcus aureus 85/2082 cultured in MHB medium assessed as reduction in bacterial growth incubated for 24 hrs by microdilution susceptibility test
# Type: functional
# Reported Conditions: 85/2082, 24 h
Readout Label: MIC (µg/mL)
Please respond with the number in µg/mL and leave the unit unwritten.

These recorded examples may help you get a feel for the data.
NCCNC(=O)C(CN)(Cc1cc(Br)cc(Br)c1)Cc1cc(Br)cc(Br)c1: 8
NCCNC(=O)C(CN)(Cc1cc(C(F)(F)F)cc(C(F)(F)F)c1)Cc1cc(C(F)(F)F)cc(C(F)(F)F)c1: 16
N#CC(Cc1cc(C(F)(F)F)cc(C(F)(F)F)c1)(Cc1cc(C(F)(F)F)cc(C(F)(F)F)c1)C(=O)NCCN: 32

Entry NCCNCC(CN)(Cc1cc(Br)cc(Br)c1)Cc1cc(Br)cc(Br)c1 has what MIC?
8

* * *

The following compounds are shown together with reported MIC values.
# System: Escherichia coli
# Experiment Description: Antibacterial activity against multidrug-resistant Escherichia coli 50739822 producing New Delhi metallo-beta-lactamase-1 cultured in MHB medium assessed as reduction in bacterial growth incubated for 24 hrs by microdilution susceptibility test
# Type: functional
# Reported Conditions: Escherichia coli, 50739822, 24 h

These recorded examples may help you get a feel for the data.
N#CC(Cc1cc(C(F)(F)F)cc(C(F)(F)F)c1)(Cc1cc(C(F)(F)F)cc(C(F)(F)F)c1)C(=O)NCCN: > 32 µg/mL
NCCNCC(CN)(Cc1cc(C(F)(F)F)cc(C(F)(F)F)c1)Cc1cc(C(F)(F)F)cc(C(F)(F)F)c1: 8 µg/mL
NCCNC(=O)C(CN)(Cc1cc(Br)cc(Br)c1)Cc1cc(Br)cc(Br)c1: 8 µg/mL

Form field - read-out: MIC; system: Escherichia coli; submitted item: NCCNCC(CN)(Cc1ccccc1Br)Cc1ccccc1Br
16 µg/mL

Form field - read-out: MIC; system: Escherichia coli; submitted item: NCCNC(=O)C(CN)(Cc1ccc(F)c2ccccc12)Cc1ccc(F)c2ccccc12
16 µg/mL

* * *

# Test system: Acinetobacter baumannii
# Experiment Description: Antibacterial activity against multidrug-resistant Acinetobacter baumannii K44-35 producing oxcillinase-23 cultured in MHB medium assessed as reduction in bacterial growth incubated for 24 hrs by microdilution susceptibility test
# Format: functional
# Reported Conditions: K44-35, 24 h
The following compounds are shown together with reported MIC values.
Please respond with the number in µg/mL and leave the unit unwritten.

NCCNCC(CN)(Cc1cc(Br)cc(Br)c1)Cc1cc(Br)cc(Br)c1: 8
NCCNCC(CN)(Cc1ccccc1Br)Cc1ccccc1Br: 16
N=C(N)NCCNC(=O)C(CNC(=N)N)(Cc1cc(Br)cc(Br)c1)Cc1cc(Br)cc(Br)c1: 16

Now let's try a different one.
Entry NCCNC(=O)C(CN)(Cc1cc(C(F)(F)F)cc(C(F)(F)F)c1)Cc1cc(C(F)(F)F)cc(C(F)(F)F)c1 has what MIC?
16

* * *

# Tested on: Acinetobacter baumannii
# Experiment Description: Antibacterial activity against multidrug-resistant Acinetobacter baumannii K44-35 producing oxcillinase-23 cultured in MHB medium assessed as reduction in bacterial growth incubated for 24 hrs by microdilution susceptibility test
# Type: functional
# Reported Conditions: K44-35, 24 h
Readout Label: MIC

These recorded examples may help you get a feel for the data.
NCCNC(=O)C(CN)(Cc1ccc(C(F)(F)F)cc1)Cc1ccc(C(F)(F)F)cc1: > 32 µg/mL
N=C(N)NCCNC(=O)C(CNC(=N)N)(Cc1ccc(F)c2ccccc12)Cc1ccc(F)c2ccccc12: > 32 µg/mL
N#CC(Cc1cc(C(F)(F)F)cc(C(F)(F)F)c1)(Cc1cc(C(F)(F)F)cc(C(F)(F)F)c1)C(=O)NCCN: > 32 µg/mL
NCCNC(=O)C(CN)(Cc1ccc(F)c2ccccc12)Cc1ccc(F)c2ccccc12: > 32 µg/mL
N=C(N)NCCNC(=O)C(CNC(=N)N)(Cc1cc(C(F)(F)F)cc(C(F)(F)F)c1)Cc1cc(C(F)(F)F)cc(C(F)(F)F)c1: > 32 µg/mL
NCCNCC(CN)(Cc1ccc(F)c2ccccc12)Cc1ccc(F)c2ccccc12: 8 µg/mL
NCCNC(=O)C(CN)(Cc1cc(Br)cc(Br)c1)Cc1cc(Br)cc(Br)c1: 32 µg/mL
NCCNC(=O)C(CN)(Cc1ccccc1C(F)(F)F)Cc1ccccc1C(F)(F)F: > 32 µg/mL

Now let's try a different one.
Form field - read-out: MIC; system: Acinetobacter baumannii; submitted item: NCCNCC(CN)(Cc1cc(C(F)(F)F)cc(C(F)(F)F)c1)Cc1cc(C(F)(F)F)cc(C(F)(F)F)c1
8 µg/mL

* * *

The following molecules are shown together with reported MIC values.
# Test system: Acinetobacter baumannii
# Experiment Description: Antibacterial activity against multidrug-resistant Acinetobacter baumannii K63-58 producing oxcillinase-23 cultured in MHB medium assessed as reduction in bacterial growth incubated for 24 hrs by microdilution susceptibility test
# Type: functional
# Reported Conditions: K63-58, 24 h
Please respond with the number in µg/mL and leave the unit unwritten.

NCCNC(=O)C(CN)(Cc1ccc(F)c2ccccc12)Cc1ccc(F)c2ccccc12: 16

Entry N=C(N)NCCNC(=O)C(CNC(=N)N)(Cc1cc(Br)cc(Br)c1)Cc1cc(Br)cc(Br)c1 has what MIC?
16

Entry NCCNCC(CN)(Cc1cc(Br)cc(Br)c1)Cc1cc(Br)cc(Br)c1 has what MIC?
8

Entry NCCNCC(CN)(Cc1ccccc1Br)Cc1ccccc1Br has what MIC?
16

* * *

# Experiment Description: Selectivity index, ratio of EC50 for hemolytic activity against human RBC to MIC for antibacterial activity against Staphylococcus aureus ATCC 9144
# Type: toxicity
# Reported Conditions: human red blood cells (RBC)
The following molecules are shown together with reported selectivity ratio values.
Lab note: write the figure by itself, no unit.

These recorded examples may help you get a feel for the data.
NCCNCC(CN)(Cc1cc(C(F)(F)F)cc(C(F)(F)F)c1)Cc1cc(C(F)(F)F)cc(C(F)(F)F)c1: 6
NCCNC(=O)C(CN)(Cc1ccccc1Br)Cc1ccccc1Br: 4
NCCNC(=O)C(CN)(Cc1cc(Br)cc(Br)c1)Cc1cc(Br)cc(Br)c1: 29
N=C(N)NCCNC(=O)C(CNC(=N)N)(Cc1cc(Br)cc(Br)c1)Cc1cc(Br)cc(Br)c1: 206
N=C(N)NCCNC(=O)C(CNC(=N)N)(Cc1cc(C(F)(F)F)cc(C(F)(F)F)c1)Cc1cc(C(F)(F)F)cc(C(F)(F)F)c1: 101
N#CC(Cc1ccccc1C(F)(F)F)(Cc1ccccc1C(F)(F)F)C(=O)NCCN: 6
N#CC(Cc1cc(C(F)(F)F)cc(C(F)(F)F)c1)(Cc1cc(C(F)(F)F)cc(C(F)(F)F)c1)C(=O)NCCN: 18
NCCNCC(CN)(Cc1ccccc1Br)Cc1ccccc1Br: 13

Entry NCCNCC(CN)(Cc1cc(Br)cc(Br)c1)Cc1cc(Br)cc(Br)c1 has what selectivity ratio?
12

* * *

The following compounds are shown together with reported MIC values.
# Tested on: Pseudomonas aeruginosa
# Experiment Description: Antibacterial activity against multidrug-resistant Pseudomonas aeruginosa 50692172 producing New Delhi metallo-beta-lactamase-1 cultured in MHB medium assessed as reduction in bacterial growth incubated for 24 hrs by microdilution susceptibility test
# Type: functional
# Reported Conditions: Pseudomonas aeruginosa, 50692172, 24 h
Please respond with the number in µg/mL and leave the unit unwritten.

Entry N=C(N)NCCNC(=O)C(CNC(=N)N)(Cc1cc(Br)cc(Br)c1)Cc1cc(Br)cc(Br)c1 has what MIC?
8

Entry N=C(N)NCCNC(=O)C(CNC(=N)N)(Cc1cc(C(F)(F)F)cc(C(F)(F)F)c1)Cc1cc(C(F)(F)F)cc(C(F)(F)F)c1 has what MIC?
32

Entry NCCNCC(CN)(Cc1cc(Br)cc(Br)c1)Cc1cc(Br)cc(Br)c1 has what MIC?
32

Entry NCCNCC(CN)(Cc1ccccc1Br)Cc1ccccc1Br has what MIC?
32

Entry NCCNCC(CN)(Cc1cc(C(F)(F)F)cc(C(F)(F)F)c1)Cc1cc(C(F)(F)F)cc(C(F)(F)F)c1 has what MIC?
16

* * *

# Test system: Escherichia coli
# Experiment Description: Antibacterial activity against Escherichia coli ATCC 25922 cultured in MHB medium assessed as no bacterial growth incubated at 37 degC for 24 hrs by microdilution susceptibility test
# Assay type: functional
# Reported Conditions: ATCC 25922, 24 h
Readout Label: log10 of MIC (log10 of the value in µg/mL)
In plain terms, each number is the log10 of measured MIC in µg/mL.

These recorded examples may help you get a feel for the data.
NCCNC(=O)C(CN)(Cc1ccc(F)c2ccccc12)Cc1ccc(F)c2ccccc12: 0.60
N#CC(Cc1ccccc1C(F)(F)F)(Cc1ccccc1C(F)(F)F)C(=O)NCCN: 1.20
N=C(N)NCCNC(=O)C(CNC(=N)N)(Cc1cc(Br)cc(Br)c1)Cc1cc(Br)cc(Br)c1: 0.90
NCCNC(=O)C(CN)(Cc1cccc2ccccc12)Cc1cccc2ccccc12: 1.20
N#CC(Cc1ccccc1Br)(Cc1ccccc1Br)C(=O)NCCN: 1.51

Form field - read-out: log10 of MIC; system: Escherichia coli; submitted item: NCCNC(=O)C(CN)(Cc1ccc(C(F)(F)F)cc1)Cc1ccc(C(F)(F)F)cc1
1.20

Form field - read-out: log10 of MIC; system: Escherichia coli; submitted item: N#CC(Cc1ccccc1F)(Cc1ccccc1F)C(=O)NCCN
1.81
